Below are IC50 values recorded for PI3Kα (Homo sapiens, UniProt P42336).
Your answer is read as pM, so omit the unit and give the number.

Example entries begin here.
O=S(=O)(Nc1cncc(-c2ccc3ncnc(N4CCOCC4)c3n2)c1)c1ccccc1
700
COc1ncc(-c2ccc3ncnc(N4CCOCC4)c3n2)cc1NS(=O)(=O)C1CC1
500
CN(C)c1ncnc2ccc(-c3cncc(NS(=O)(=O)c4ccccc4)c3)nc12
2000

Lab note: next compound to report on.
Task item: Could you share what IC50 was measured for O=S(=O)(Nc1cc(-c2ccc3ncnc(N4CCOCC4)c3n2)cnc1Cl)c1ccc(F)cc1F , tested on PI3Kα (Homo sapiens, UniProt P42336)?
Reply: 20
